biological target: SARS-CoV-1 spike antigens (bead panel) (SARS-CoV-1, UniProt P59594 14-1195); assay: multiplex bead assay
test_readout: binding result

COV_2039 (antibody, V domains shown, human IgG1) VH: QVQLVQSGAEVKKPGASVKVSCKVSGYMLIELSMHWVRQAPGKGLEWMGGFDPEDAETIYAQEFQGRVTMTEDTSTDTAYMELSSLRSEDTAVYYCTTGPAVTNRPADYWGPGTLVTVSS VL: QSVLTQPPSVSGAPGQRVTISCTGSSSNIGASYDVHWYQQLPGTAPKLLIYANSNRPSGVPDRFSGSKSGTSASLAITGLQAEDEADYYCQSYDSSLSYSVVFGGGTKLTVL	no binding
COV_1149 (antibody, V domains shown, human IgG1) VH: QVQLVESGGGVVQPGRSLRLSCAASGFTFSSYGMHWVRQAPGKGLEWVAVISYDGSNKYYADSVKGRFTISRDNSKNTLYLQMNSLRAEDTAVYYCAKTGGGYSYGLGNVWGQGTLVTVSS VL: QSALTQPASVSGSPGQSITISCTGTSSDVGGYNYVSWYQQHPGKAPKLMIYDVSNRPSGVSNRFSGSKSGNTASLTISGLQAEDEADYYCSSYTSSSTLVVFGGGTKLTVLG	no binding
COV_3088 (antibody, V domains shown, human IgG1) VH: EVQLVESGGGLVQPGGSLRLSCAASGFTFSSYDMHWVRQATGKGLEWVSAIGTAGDTYYPGSVKGRFTISRENAKNSLYLQMNSLRAGDTAVYYCARGSGWPPFFDYWGQGTLVTVSS VL: SYELTQPPSVSVAPGKTARITCGGNNIGSKSVHWYQQKPGQAPVLVIYYDSDRPSGIPERFSGSNSGNTATLTISRVEAGDEADYYCQVWDSSSDHHWVFGGGTKLTVL	no binding
COV_1050 (antibody, V domains shown, human IgG1) VH: QVQLVESGGGVVQPGRSLRLSCAASRFTFSSYAMHWVRQAPGKGLEWVAVISFDGSNKYYADSVKGRFTIFRDNSKNTLSLQMNSLRTEDTAMYYCASPAGYYESLWGQGTLVTVSS VL: SYELTQPPSVSVSPGQTARVTCSGDALSKQYGFWYQQKPGQAPTLVIYKDTERPSGIPERFSGSGSGTTVTLTISGVQAEDEADYYCQSTDNSGRWVFGGGTKLTVLG	no binding
